- Experimental Target: T1, PUF4 RNA-binding domain (Saccharomyces cerevisiae, UniProt P25339 537-888)
- T1 sequence: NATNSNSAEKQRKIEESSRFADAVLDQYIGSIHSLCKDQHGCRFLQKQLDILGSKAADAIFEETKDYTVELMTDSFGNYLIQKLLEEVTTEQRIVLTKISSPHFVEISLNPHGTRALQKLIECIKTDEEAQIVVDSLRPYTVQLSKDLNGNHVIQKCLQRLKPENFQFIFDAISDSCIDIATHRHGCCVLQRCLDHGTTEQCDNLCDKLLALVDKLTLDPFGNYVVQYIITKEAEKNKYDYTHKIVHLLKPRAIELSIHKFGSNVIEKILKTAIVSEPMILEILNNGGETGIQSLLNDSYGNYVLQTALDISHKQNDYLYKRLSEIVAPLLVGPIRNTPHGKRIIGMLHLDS
- Test Protocol: Mg; RNA-MaP; 20 mM Na-HEPES pH 7.4, 30 mM KOAc, 0.75 mM MgCl2, 0.1% Tween-20, 5% glycerol, 0.1 mg/mL BSA, 2 mM DTT; 25 C; 0.0125-409.6 nM protein
- Assay Conditions: tags: N-His6-TEV cleaved; C-SNAP kept, Cy3B-labelled; label: tethered on chip by stalled RNA polymerase
Give measured Kd for each item. Keep answers brief.

UCUCUUUGUAUGGCCUCUCUU (ssRNA) [Ic_S1_P4E.1_K4.1_C4.1_H4.1_A4.1_[A6G]_[T7G]_F4.1_[T8C]_[A9C]_T4.1]	> 2300 nM
UCUCUUUCACACUAUAAUUCUCUU (ssRNA) [Id_ii_S1_P3E.4_K3.3_C3.2_[C-2T]_[T-1C]_H3.3_A3.1_F3.1_T3.2_[T9A]_[A10T]]	> 2300 nM

Name the recorded Kd for Ib_S4_P4E.1_K4.1_C4.1_H4.1_[T3C]_A4.1_F4.1_[A9G]_T4.1 (ssRNA) RNA: UUUGACAACUGAUCGUUCUUUCUUGCAUAUUGUUCUUUCUCGAUCAGUUGUCUUU .
> 2300 nM
